- system: human FAK (Homo sapiens)
- Construct: The complete cDNA of human FAK; made in house; host or cells: baculovirus expression system (vector pFastBac HTc)
- Sequence (Q05397 whole entry): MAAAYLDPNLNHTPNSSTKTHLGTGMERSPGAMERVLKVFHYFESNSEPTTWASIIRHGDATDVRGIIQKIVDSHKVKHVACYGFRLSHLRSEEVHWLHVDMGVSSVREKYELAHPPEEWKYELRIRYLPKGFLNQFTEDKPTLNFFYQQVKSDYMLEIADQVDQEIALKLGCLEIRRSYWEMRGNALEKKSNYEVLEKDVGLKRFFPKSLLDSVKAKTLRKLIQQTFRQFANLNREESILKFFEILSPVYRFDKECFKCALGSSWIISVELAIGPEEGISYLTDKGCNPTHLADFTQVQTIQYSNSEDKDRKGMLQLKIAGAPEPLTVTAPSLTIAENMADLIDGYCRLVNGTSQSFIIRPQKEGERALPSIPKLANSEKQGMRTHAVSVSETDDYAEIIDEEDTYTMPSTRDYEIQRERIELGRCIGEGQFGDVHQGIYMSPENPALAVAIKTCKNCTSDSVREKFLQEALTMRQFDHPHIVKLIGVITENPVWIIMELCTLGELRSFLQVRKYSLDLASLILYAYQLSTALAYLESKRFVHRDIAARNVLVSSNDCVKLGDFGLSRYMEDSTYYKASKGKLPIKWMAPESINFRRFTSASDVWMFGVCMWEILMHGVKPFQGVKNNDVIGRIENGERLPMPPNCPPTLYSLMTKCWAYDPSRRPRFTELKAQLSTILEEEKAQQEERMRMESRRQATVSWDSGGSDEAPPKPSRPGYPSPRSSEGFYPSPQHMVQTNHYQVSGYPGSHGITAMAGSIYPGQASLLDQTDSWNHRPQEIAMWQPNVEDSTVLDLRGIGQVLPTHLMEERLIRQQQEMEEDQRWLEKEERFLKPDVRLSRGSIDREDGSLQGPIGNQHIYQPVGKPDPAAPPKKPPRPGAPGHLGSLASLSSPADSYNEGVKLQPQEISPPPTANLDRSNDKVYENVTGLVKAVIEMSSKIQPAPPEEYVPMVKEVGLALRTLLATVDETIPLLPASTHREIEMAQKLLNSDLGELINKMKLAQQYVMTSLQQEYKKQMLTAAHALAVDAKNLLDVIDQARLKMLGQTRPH
- experimentalDetails: FAK autophosphorylation inhibition, time resolved fluorescence (HTRF) assay
- Type: biochemical
- testConditions: 10 μM (values without asterisk); read-out: FAK % inhib at 10 μM
Rule: Fulfilled for inhibition at 10 µM not less than 70%, Not fulfilled for anything less.

# example entries with known answers
>  <molecule>
CS(=O)(=O)c1ccccc1S(=O)(=O)Nc1ccc2[nH]nc(-c3cc4ccccc4o3)c2c1

>  <labelClass>
Fulfilled

$$$$
>  <molecule>
CS(=O)(=O)c1ccccc1S(=O)(=O)Nc1ccc2[nH]nc(-c3ccccc3Cl)c2c1

>  <labelClass>
Not fulfilled

$$$$
>  <molecule>
CS(=O)(=O)c1ccccc1S(=O)(=O)Nc1ccc2[nH]nc(-c3ccc(C(F)(F)F)cc3)c2c1

>  <labelClass>
Not fulfilled

$$$$
>  <molecule>
O=S(=O)(Cc1ccccc1)Nc1ccc2[nH]nc(-c3ccccc3)c2c1

>  <labelClass>
Not fulfilled

$$$$
>  <molecule>
O=S(=O)(Nc1ccc2[nH]nc(-c3ccccc3)c2c1)c1cccc(C(F)(F)F)c1

>  <labelClass>
Not fulfilled

$$$$
>  <molecule>
O=S(=O)(Nc1ccc2[nH]nc(-c3ccccc3)c2c1)c1cc(F)cc(F)c1

>  <labelClass>
Fulfilled

$$$$

Form field: inhibition at 10 µM at least 70%? Entry: CN(C)c1cccc2c(S(=O)(=O)Nc3ccc4[nH]nc(-c5ccccc5)c4c3)cccc12
Not fulfilled

Form field: inhibition at 10 µM at least 70%? Entry: O=C(Nc1n[nH]c2ccc(NS(=O)(=O)c3cc(F)cc(F)c3)cc12)c1ccccc1
Fulfilled

Form field: inhibition at 10 µM at least 70%? Entry: O=S(=O)(Oc1ccc2[nH]ncc2c1)c1cccc(F)c1 [Example 17, 1H-Indazol-5-yl 3-fluorobenzenesulfonate]
Not fulfilled
